Quick reference: IC50 of the listed items.
Tested on: A2780 ovarian carcinoma cells
Protocol: In vitro cytotoxicity (MTT assay), A2780
Type: cell-based, human
Test conditions: read-out: Time-dependent in vitro cytotoxicity (IC50), A2780, 48 h; 48 h incubation
Provide the reading as a plain figure in nM.

# Compound, IC50, nM
measured = [
    ("CC[PH](CC)(CC)[Au][S][C@@H]1O[C@H](COC(C)=O)[C@@H](OC(C)=O)[C@H](OC(C)=O)[C@H]1OC(C)=O", 2100),
]

// below: IC50 requested for another compound
Prompt: What value of measured IC50 is listed for c1ccc([PH]([Au][n]2cnc3c(NCc4ccco4)ncnc32)(c2ccccc2)c2ccccc2)cc1 [[Au(kin)(PPh3)] (1), [Au(kin)(PPh3)]] ?
Completion: 3000

---

Test system: THP1-Blue™ NF-κB cells
Protocol: Cell viability, CCK-8, serum-free medium
Assay type: cell-based, human
Test conditions: THP1-Blue NF-κB cells, serum-free medium, 24 h treatment, CCK-8; read-out: IC50 ± SEM, cytotoxic effect
Procedure: The cells were cultivated in RPMI (Roswell Park Memorial Institute) 1640 medium (Biosera; Nuaille, France) supplemented with 10% fetal bovine serum (FBS) and antibiotics (100 U/mL penicillin and […] streptomycin) (both from Merck). […] The effect of the test compounds dissolved in DMF on cell viability after 24 h incubation was determined using a Cell Counting Kit-8 (CCK-8; Merck) according to the manufacturer’s instructions, similarly as previously described.
Observation type: IC50 (nM)
Provide the reading as a plain figure in nM.

Prompt: What value of measured IC50 is listed for CC[PH](CC)(CC)[Au][S][C@@H]1O[C@H](COC(C)=O)[C@@H](OC(C)=O)[C@H](OC(C)=O)[C@H]1OC(C)=O ?
Completion: 500

---

Test system: THP-1 leukemia monocytic cells
Protocol: In vitro cytotoxicity (MTT assay), THP-1
Format: cell-based, human
Test conditions: ± standard deviation, triplicate
Observation type: IC50 (µM)
Provide the reading as a plain figure in µM.

Prompt: Find the measured IC50: item c1ccc([PH]([Au][n]2cnc3c(NCc4ccco4)ncnc32)(c2ccccc2)c2ccccc2)cc1 [[Au(kin)(PPh3)] (1), [Au(kin)(PPh3)]] , target or system THP-1 leukemia monocytic cells.
Completion: 1.1

---

Tested on: THP1-Blue™ NF-κB cells
Protocol: Cell viability, CCK-8, serum-free medium
Type: cell-based, human
Observation type: IC50 (nM)
Provide the reading as a plain figure in nM.

Prompt: Find the measured IC50: item [Cl][Au].c1ccc(P(c2ccccc2)c2ccccc2)cc1 [[Au(PPh3)Cl]] , target or system THP1-Blue™ NF-κB cells.
Completion: 1100

Cited source: paper PMC9916778
